experimental.system: UniProt O76074
value.kind: IC50 (µM)

INSERT INTO results (line_notation, value_kind, experimental_value) VALUES
  ('COc1cc(-c2cc(=O)c3c(O)c(OC)c(O)c(OC)c3o2)ccc1O', 'IC50', 6.54);

###

experimental.system: PDE3A (Homo sapiens, UniProt Q14432)
Sequence (Q14432 whole entry): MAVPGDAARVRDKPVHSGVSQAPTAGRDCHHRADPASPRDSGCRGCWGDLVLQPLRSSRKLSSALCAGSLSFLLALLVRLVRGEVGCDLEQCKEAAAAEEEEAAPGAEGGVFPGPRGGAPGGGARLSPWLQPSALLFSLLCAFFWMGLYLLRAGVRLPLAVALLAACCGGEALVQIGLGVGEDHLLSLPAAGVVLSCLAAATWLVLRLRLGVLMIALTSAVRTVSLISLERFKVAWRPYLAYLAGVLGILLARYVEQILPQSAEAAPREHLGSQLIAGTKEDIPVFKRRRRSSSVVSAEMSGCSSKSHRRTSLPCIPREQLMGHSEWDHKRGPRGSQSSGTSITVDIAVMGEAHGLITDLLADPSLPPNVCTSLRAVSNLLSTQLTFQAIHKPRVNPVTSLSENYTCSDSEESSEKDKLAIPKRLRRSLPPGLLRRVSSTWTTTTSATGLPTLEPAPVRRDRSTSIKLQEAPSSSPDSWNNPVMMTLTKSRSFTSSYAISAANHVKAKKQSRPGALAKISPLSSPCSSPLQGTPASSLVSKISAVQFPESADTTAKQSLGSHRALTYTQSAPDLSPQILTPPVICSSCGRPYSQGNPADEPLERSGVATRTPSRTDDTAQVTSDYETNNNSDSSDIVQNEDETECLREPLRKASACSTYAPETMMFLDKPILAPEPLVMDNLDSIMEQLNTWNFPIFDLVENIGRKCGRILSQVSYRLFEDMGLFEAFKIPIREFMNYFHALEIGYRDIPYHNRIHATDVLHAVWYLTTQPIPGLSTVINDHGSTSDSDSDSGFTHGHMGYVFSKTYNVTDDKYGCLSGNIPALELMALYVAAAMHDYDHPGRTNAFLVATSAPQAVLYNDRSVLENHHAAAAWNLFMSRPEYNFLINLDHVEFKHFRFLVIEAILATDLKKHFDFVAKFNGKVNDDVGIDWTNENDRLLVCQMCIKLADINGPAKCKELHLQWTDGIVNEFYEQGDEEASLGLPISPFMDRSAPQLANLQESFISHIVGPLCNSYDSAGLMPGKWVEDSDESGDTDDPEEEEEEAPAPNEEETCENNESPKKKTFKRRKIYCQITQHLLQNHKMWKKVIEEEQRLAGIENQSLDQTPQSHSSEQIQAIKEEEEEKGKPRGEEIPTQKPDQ
method: Fluorescein-AMP
Assay type: biochemical
pIC50: −log10 of the molar value.
value.kind: pIC50

INSERT INTO results (line_notation, experimental_value) VALUES
  ('COc1cc(-c2cc(=O)c3c(O)c(OC)c(O)c(OC)c3o2)ccc1O', 5.28);

###

experimental.system: PDE10A2 (Homo sapiens, UniProt Q9Y233)
Sequence (Q9Y233 267-1055): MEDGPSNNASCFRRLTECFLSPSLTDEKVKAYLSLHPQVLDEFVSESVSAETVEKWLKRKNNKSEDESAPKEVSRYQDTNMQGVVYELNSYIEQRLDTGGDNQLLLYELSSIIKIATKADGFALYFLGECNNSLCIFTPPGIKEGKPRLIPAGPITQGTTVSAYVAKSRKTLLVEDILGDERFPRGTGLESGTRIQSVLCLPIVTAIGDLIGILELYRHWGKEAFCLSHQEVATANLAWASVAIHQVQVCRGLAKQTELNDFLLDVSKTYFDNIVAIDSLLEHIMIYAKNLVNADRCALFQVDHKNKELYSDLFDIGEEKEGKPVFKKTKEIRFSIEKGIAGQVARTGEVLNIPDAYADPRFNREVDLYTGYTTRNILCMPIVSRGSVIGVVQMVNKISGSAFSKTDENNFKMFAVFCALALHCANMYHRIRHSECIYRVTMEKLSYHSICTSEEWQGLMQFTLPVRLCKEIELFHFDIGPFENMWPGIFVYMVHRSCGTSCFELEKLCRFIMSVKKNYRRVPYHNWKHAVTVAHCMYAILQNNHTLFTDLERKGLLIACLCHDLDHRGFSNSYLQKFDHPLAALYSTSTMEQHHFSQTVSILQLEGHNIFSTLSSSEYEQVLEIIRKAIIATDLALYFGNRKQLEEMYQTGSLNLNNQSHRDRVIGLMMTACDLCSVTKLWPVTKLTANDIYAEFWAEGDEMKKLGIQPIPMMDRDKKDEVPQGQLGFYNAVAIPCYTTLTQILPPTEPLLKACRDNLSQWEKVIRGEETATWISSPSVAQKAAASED
pIC50: −log10 of the molar value.
value.kind: pIC50

INSERT INTO measurements (line_notation, experimental_value) VALUES
  ('COc1cc(-c2cc(=O)c3c(O)c(OC)c(O)c(OC)c3o2)ccc1O', 5.00);

###

experimental.system: PDE8A1 (Homo sapiens, UniProt O60658)
Sequence (O60658 whole entry): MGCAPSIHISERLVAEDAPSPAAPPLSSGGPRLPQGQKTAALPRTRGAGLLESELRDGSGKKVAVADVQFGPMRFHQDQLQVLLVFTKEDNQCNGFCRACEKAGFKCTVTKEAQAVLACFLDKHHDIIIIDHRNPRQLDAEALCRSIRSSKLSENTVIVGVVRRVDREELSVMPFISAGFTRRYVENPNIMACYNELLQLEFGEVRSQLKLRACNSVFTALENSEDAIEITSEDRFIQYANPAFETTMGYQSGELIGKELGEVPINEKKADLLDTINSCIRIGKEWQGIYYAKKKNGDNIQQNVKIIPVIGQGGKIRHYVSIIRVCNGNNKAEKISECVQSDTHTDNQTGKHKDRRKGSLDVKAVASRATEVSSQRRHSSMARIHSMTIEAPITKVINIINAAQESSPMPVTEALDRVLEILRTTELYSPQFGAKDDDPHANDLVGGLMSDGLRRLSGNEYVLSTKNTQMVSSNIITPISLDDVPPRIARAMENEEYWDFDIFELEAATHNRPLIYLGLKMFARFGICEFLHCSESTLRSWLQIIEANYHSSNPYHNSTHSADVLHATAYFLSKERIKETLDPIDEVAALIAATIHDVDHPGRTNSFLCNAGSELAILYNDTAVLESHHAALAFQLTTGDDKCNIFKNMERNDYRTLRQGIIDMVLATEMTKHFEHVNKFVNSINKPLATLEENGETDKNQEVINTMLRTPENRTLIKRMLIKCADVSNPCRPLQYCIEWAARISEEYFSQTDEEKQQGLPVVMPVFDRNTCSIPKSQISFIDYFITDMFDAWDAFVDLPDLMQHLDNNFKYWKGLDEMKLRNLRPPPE
pIC50: −log10 of the molar value.
value.kind: pIC50

INSERT INTO results (compound, value_kind, experimental_value) VALUES
  ('COc1cc(-c2cc(=O)c3c(O)c(OC)c(O)c(OC)c3o2)ccc1O [Sudachitin]', 'pIC50', 4.58);
